Target: T1, human NPY2 receptor (NPY2R) (human, UniProt P49146)
T1 chain: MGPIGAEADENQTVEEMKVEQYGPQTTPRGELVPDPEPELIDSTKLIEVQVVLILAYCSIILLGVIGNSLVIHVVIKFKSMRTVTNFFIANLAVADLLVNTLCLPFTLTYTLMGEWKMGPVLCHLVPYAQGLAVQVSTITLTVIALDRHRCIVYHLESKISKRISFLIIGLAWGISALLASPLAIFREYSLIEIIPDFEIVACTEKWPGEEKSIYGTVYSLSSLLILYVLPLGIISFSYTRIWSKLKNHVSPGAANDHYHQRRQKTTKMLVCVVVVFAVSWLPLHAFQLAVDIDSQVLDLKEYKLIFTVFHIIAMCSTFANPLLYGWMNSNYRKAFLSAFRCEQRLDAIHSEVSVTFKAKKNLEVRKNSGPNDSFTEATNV
Experiment: competition
*1 amine or outer side, *2 acyl side, *3 side chain or, on linkers, in order; H or OH if unused. Side-chain parts run from the residue outwards. The star is where a group is joined. C18 diacid = O=C(O)CCCCCCCCCCCCCCCCC(=O)*; γGlu = O=C(O)[C@H](CCC(=O)[*:2])N[*:1]; Isovaleryl = CC(C)CC(=O)*; Ahx = NCCCCCC(=O)O
Assay endpoint: Ki (nM)

Binder	U	Recorded measurement
Isovaleryl-APEK([Ahx-γGlu-C18 diacid])PEAEASPEELQRYYVSLRHYYNWLTRQRY-NH2 [Compound 122]	nM	2.73
